- System: Micrococcus luteus
- Assay summary: Antibacterial activity against Micrococcus luteus ATCC 4698 after 24 hrs by two fold serial dilution method
- Type: functional
- Assay conditions: NCTC 2665, 24 h
Parameter: MIC (µg/mL)

{"columns": ["Smiles str", "Unit abbreviation", "Endpoint result"],
 "data": [
  ["COc1ccc(Cn2cc(-c3cnc(N)s3)c(=O)c3cc(F)cc(F)c32)cc1", "µg/mL", 64],
  ["CCCCCCCn1cc(-c2cnc(N)s2)c(=O)c2cc(F)cc(F)c21", "µg/mL", 256],
  ["C#CCn1cc(-c2cnc(N)s2)c(=O)c2cc(F)cc(F)c21", "µg/mL", 32],
  ["CCCCCCCCCCn1cc(-c2cnc(N)s2)c(=O)c2cc(F)cc(F)c21", "µg/mL", 128],
  ["Nc1ncc(-c2cn(Cc3ccccc3Cl)c3c(F)cc(F)cc3c2=O)s1", "µg/mL", 64],
  ["Nc1ncc(-c2cn(Cc3cccc(Cl)c3)c3c(F)cc(F)cc3c2=O)s1", "µg/mL", 128]
]}

* * *

- Assay summary: Cytotoxicity against mouse L929 cells assessed as reduction in cell viability after 48 hrs by MTT assay
- Format: toxicity

{"columns": ["Smiles str", "IC50 at 48 h [µg/mL]"],
 "data": [
  ["C#CCn1cc(-c2cnc(N)s2)c(=O)c2cc(F)cc(F)c21", 289]
]}
